Just for reference, patent US4507318A is where these values come from.

Quick reference for solubility among some compounds
method: Solubility in water
Assay type: physicochemical
Only the number, expressed in mg/mL, is required.

Can you share its solubility? I mean this compound: CCOC(=O)[C@]1(c2ccccc2)C[C@@H]1CN1CCN(c2ccccc2)CC1 (relative stereo)
5

Same thing, different compound: CCOC(=O)[C@]1(c2ccccc2)C[C@@H]1CN(C(C)C)C(C)C (relative stereo)
100

Next entry: COC(=O)[C@]1(c2ccccc2)C[C@@H]1CN(C)C (relative stereo)
500

---
What does the data say about its solubility? Entry: CCOC(=O)[C@]1(c2ccccc2)C[C@@H]1CN1CCCC1 (relative stereo)
500

What do you have for CCOC(=O)[C@]1(c2ccccc2)C[C@@H]1CNC (relative stereo) ?
500

Would you kindly repeat that for CCOC(=O)[C@]1(c2ccccc2)C[C@@H]1CN1CCOCC1 (relative stereo) ?
500

Same read-out for CCOC(=O)[C@]1(c2ccccc2)C[C@@H]1CNC(C)C (relative stereo) ?
500

Can you handle C#CC(C)(C)NC[C@H]1C[C@]1(C(=O)OCC)c1ccccc1 (relative stereo) next?
30

Same again, this time with CCOC(=O)[C@]1(c2ccccc2)C[C@@H]1CNCCc1ccccc1 (relative stereo)
500

Now the same for CCOC(=O)[C@]1(c2ccccc2)C[C@@H]1CNC(C)(C)C (relative stereo)
170

Again, but for CCCCCN(C)C[C@H]1C[C@]1(C(=O)OCC)c1ccccc1 (relative stereo)
30

And what about the compound CCOC(=O)[C@]1(c2ccccc2)C[C@@H]1CN(C)CCN(C)C (relative stereo) ?
500

And the next one, CCCOC(=O)[C@]1(c2ccccc2)C[C@@H]1CN(C)C (relative stereo) ?
150

Further, for CCOC(=O)[C@]1(c2ccccc2)C[C@@H]1CN(CC)CC (relative stereo) ?
500

What about this compound? CCOC(=O)[C@]1(c2ccccc2)C[C@@H]1CN(C)CCO (relative stereo)
80

# repeat for CCOCCNC[C@H]1C[C@]1(C(=O)OCC)c1ccccc1 (relative stereo)
500

----------
Listed here: items and their measured solubility.
method: Solubility in water
Assay type: physicochemical
Reply with just the number (in mg/mL).

Guide cases for solubility, answers given:
Give the measured solubility of CCOC(=O)[C@]1(c2ccccc2)C[C@@H]1CN(CCO)CCO (relative stereo) [Example 7] .
500

Item: CCOC(=O)[C@]1(c2ccccc2)C[C@@H]1CN(C)Cc1ccccc1 (relative stereo) [Example 5]
100

// query: CCOC(=O)[C@]1(c2ccccc2)C[C@@H]1CN(C)CC (relative stereo) [Example 17]
500

Next compound, solubility to be filled in.
Using the record for CCOC(=O)[C@]1(c2ccccc2)C[C@@H]1CNCc1ccccc1 (relative stereo) [Example 14] , report its solubility.
10

----------
This section presents molecules with their documented LD50 values.
method: Toxicity study (ED50 orally and intraperitoneally, method of Miller and Tainter)
condition: in vivo, ip, intraperitoneally, read-out: ED50 intraperitoneally
Where a name gives a salt, the structure may show the parent alone.
Give just the numeric value; mg/kg need not be written.

Completed entries (count: 3):
Give the measured LD50 of COC(=O)[C@]1(c2ccc(N)cc2)C[C@@H]1CN(C)C (relative stereo) .
100

Request: CC(C)OC(=O)[C@]1(c2ccccc2)C[C@@H]1CN(C)C (relative stereo)
130

Now give it for CCOC(=O)[C@]1(c2ccc(Cl)c(Cl)c2)C[C@@H]1CN(C)C (relative stereo) too.
170

Next:
// LD50 lookup, key: CN(C)C[C@H]1C[C@]1(C(=O)OCc1ccccc1)c1ccccc1 (relative stereo)
130

Now this one: CCOC(=O)[C@]1(c2ccc(Cl)cc2)C[C@@H]1CN(C)C (relative stereo) [Example 41, hydrochloride]
120

Another molecule to look at: CCOC(=O)[C@]1(c2cccc(Cl)c2)C[C@@H]1CN(C)C (relative stereo)
170
